These measurements were taken from paper PMC9127750.

Tested on: Colo 205
Test: cells
Conditions: Homo sapiens, COLO 205, read-out: IC50 ARN22089
endpoint-label: IC50 (µM)
Respond numerically; units are µM and should not be typed.

For the record CN(C)c1cccc(Nc2cc(-c3ccccc3)nc(C3CCNCC3)n2)c1 , what value of IC50 is listed for Colo 205?
7

---

System: MOLM-13
Assay: cells
Conditions: Homo sapiens, MOLM-13, read-out: IC50 ARN22089
endpoint-label: pIC50
By convention, pIC50 is the negative base-10 log of a molar concentration.

// lookup pIC50 for CN(C)c1cccc(Nc2cc(-c3ccccc3)nc(C3CCNCC3)n2)c1 [ARN22089]
4.89
